Just for reference, ChEMBL document CHEMBL1201862 is where these values come from.

Test system: NCI/ADR-RES
Assay: NCI tumour cell line growth inhibition, 48 h
Calls of active or inactive are those of the source. Rule as the data show it: active = GI50 up to about 1.1 µM and inactive = higher.
Measured GI50 accompanies every entry in the list below.
property_name: GI50

> print(dat)
                                   compound  property.name       measured.value
1  CC(=O)c1ccc2c(c1)CC1(C2)Cc2ccccc2C1=O (stereo unspecified)           GI50     16 µM (inactive)
2  CC1CCCC(C(O)CC2CC(=O)NC(=O)C2)C1O (stereo unspecified)           GI50  > 100 µM (inactive)
3  O=c1[nH]c(=O)n(C2OC(CO)C(O)C(O)C2O)cc1F (stereo unspecified)           GI50  > 100 µM (inactive)
4  O=[N+]([O-])c1cc(Cc2cc([N+](=O)[O-])c3cccnc3c2O)c(O)c2ncccc12           GI50    3.6 µM (inactive)
5  CCn1c2ccc(C(=O)CCCN(C)C)cc2c2cc(C(=O)CCCN(C)C)ccc21           GI50   4.93 µM (inactive)
6  O=c1[nH]c(=O)n(C2C(CO)OC(CO)C2O)cc1F (stereo unspecified)           GI50  > 100 µM (inactive)
